# System: Lefty1
# experiment.notes: Lefty1 binders on small-molecule microarrays, primary screen, biochemical, small-molecule microarray, 635/667 nm fluorescence (AID 1139)
# assay.conditions: small-molecule microarray binding, fluorescence 635/667; higher = more signal
For each of the compounds below, state its composite z-score.
One number for each entry.

Here is how some compounds turned out for composite z-score.
CCOC(=O)NN=C1C[C@@H](O)[C@@H](O)[C@@H]2[C@@H]3C(=O)N(C4CCCCC4)C(=O)[C@@H]3CC[C@@H]12 | 0.319
CCCC[C@H]1OB(O)C[C@H]2C1=C(C)C[C@H]1C(=O)N(C)C(=O)[C@H]12 | 0.794
Cn1cccc1C(O)C1C=CC2C(=O)NC(=O)C2N1Nc1ccccn1 (configuration not stated) | 0.097
CCN(CC)c1ccc(N2CC=CC34O[C@@H]5/C=C\CCC(C)OC(=O)C5[C@H]3C(=O)N(CCCO)[C@@H]4C2=O)cc1 (some centres not stated) | -0.784
CCOC(=O)CCN1C(=O)[C@H]2[C@H]3[C@H](O)[C@H](O)CC(=NOC[C@@H](O)COCc4ccco4)[C@@H]3CC[C@H]2C1=O | -0.219

Dear colleague, could you please provide composite z-score for the compounds listed below?
1. [N-]=[N+]=Nc1ccccc1C[C@@]1(C(N)=O)N=C(c2ccc(OCCCO)cc2)O[C@@H]1c1ccccc1
2. C[C@@H](c1ccccc1)N1C(=O)[C@H]2[C@H]3[C@H](O)[C@H](O)CC(=NOC[C@@H](O)COCc4ccco4)[C@@H]3CC[C@H]2C1=O

-1.27
-0.809
